- testedOn: Oxytocin receptor (Rattus norvegicus)
- Sequence (P70536 whole entry): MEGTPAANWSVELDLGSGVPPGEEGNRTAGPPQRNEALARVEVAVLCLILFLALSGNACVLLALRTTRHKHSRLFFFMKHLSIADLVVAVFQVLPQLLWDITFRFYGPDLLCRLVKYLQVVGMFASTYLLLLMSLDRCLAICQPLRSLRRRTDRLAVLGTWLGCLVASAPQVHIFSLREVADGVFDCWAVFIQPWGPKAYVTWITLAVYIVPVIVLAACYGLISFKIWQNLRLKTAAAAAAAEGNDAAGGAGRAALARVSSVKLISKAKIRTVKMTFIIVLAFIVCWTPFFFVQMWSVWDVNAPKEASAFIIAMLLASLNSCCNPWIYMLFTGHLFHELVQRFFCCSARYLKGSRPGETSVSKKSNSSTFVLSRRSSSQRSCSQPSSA
- experimentSummary: In vitro anti-oxytocic activity with 0.5 mM Mg2+.
- measurementContext: read-out: pA2 (converted)
experimentalEndpoint: Kb (nM)
I only need the number, in nM, no unit after it.

Reference set (3 entries):
>  <entrySmiles>
CC[C@H](C)[C@@H]1NC(=O)[C@H](Cc2ccc(OC)cc2)NC(=O)CC2(CCCCC2)SSC[C@H](C(=O)N2CCC[C@H]2C(=O)N[C@@H](CCCN)C(=O)N[C@@H](Cc2ccc(O)cc2)C(N)=O)NC(=O)[C@H](CC(N)=O)NC(=O)[C@H]([C@@H](C)O)NC1=O

>  <unitInfo>
nM

>  <Kb>
38.9

$$$$
>  <entrySmiles>
CC[C@H](C)[C@@H]1NC(=O)[C@H](Cc2ccc(OC)cc2)NC(=O)CC2(CCCCC2)SSC[C@H](C(=O)N2CCC[C@H]2C(=O)N[C@@H](CCCN)C(=O)NCC(N)=O)NC(=O)[C@H](CC(N)=O)NC(=O)[C@H](CCC(N)=O)NC1=O

>  <unitInfo>
nM

>  <Kb>
36.3

$$$$
>  <entrySmiles>
CC[C@H](C)[C@@H]1NC(=O)[C@H](Cc2ccc(OC)cc2)NC(=O)CC2(CCCCC2)SSC[C@@H](C(=O)N2CCC[C@H]2C(=O)N[C@@H](CCCN)C(=O)NCC(N)=O)NC(=O)[C@H](CC(N)=O)NC(=O)[C@H](CCC(N)=O)NC1=O

>  <unitInfo>
nM

>  <Kb>
13.2

$$$$

Any idea what Kb was measured for "CC[C@H](C)[C@@H]1NC(=O)[C@H](Cc2ccc(OC)cc2)NC(=O)CC2(CCCCC2)SSC[C@@H](C(=O)N2CCC[C@H]2C(=O)N[C@@H](CCCN)C(=O)O)NC(=O)[C@H](CC(N)=O)NC(=O)[C@H]([C@@H](C)O)NC1=O" ?
5.75

// next record "CC[C@H](C)[C@@H]1NC(=O)[C@H](Cc2ccc(OC)cc2)NC(=O)CC2(CCCCC2)SSC[C@H](C(=O)N2CCC[C@H]2C(=O)N[C@@H](CCCN)C(=O)O)NC(=O)[C@H](CC(N)=O)NC(=O)[C@H]([C@@H](C)O)NC1=O"
25.1

// next record "CC[C@H](C)[C@@H]1NC(=O)[C@H](Cc2ccc(OC)cc2)NC(=O)CC2(CCCCC2)SSC[C@@H](C(=O)N2CCC[C@H]2C(=O)N[C@@H](CCCN)C(=O)N[C@@H](Cc2ccc(O)cc2)C(N)=O)NC(=O)[C@H](CC(N)=O)NC(=O)[C@H]([C@@H](C)O)NC1=O"
5.25

* * *

- testedOn: Vasopressin V2 receptor (Rattus norvegicus)
- experimentSummary: Antidiuretic activity at V2 receptor
- Type: tissue-based, Urine
- measurementContext: read-out: pA2 (converted)
Below, each entry is listed with its recorded Kb.
I only need the number, in µM, no unit after it.

Reference set (2 entries):
>  <entrySmiles>
CC(C)[C@@H]1NC(=O)[C@H](Cc2ccccc2)NC(=O)[C@@H](Cc2ccccc2)NC(=O)CC2(CCCCC2)SSC[C@@H](C(=O)N2CCC[C@H]2C(=O)N[C@@H](CCCN=C(N)N)C(=O)NCC(N)=O)NC(=O)[C@H](CC(N)=O)NC1=O

>  <Kb [µM]>
0.00851

$$$$
>  <entrySmiles>
CC[C@H](C)[C@@H]1NC(=O)[C@H](Cc2ccc(OC)cc2)NC(=O)CC2(CCCCC2)SSC[C@H](C(=O)N2CCC[C@H]2C(=O)N[C@@H](CCCN)C(=O)NCC(N)=O)NC(=O)[C@H](CC(N)=O)NC(=O)[C@H](CCC(N)=O)NC1=O

>  <Kb [µM]>
1.26

$$$$

Then there is this compound:
Any idea what Kb was measured for "COc1ccc(C[C@@H]2NC(=O)CC3(CCCCC3)SSC[C@H](C(=O)N3CCC[C@H]3C(=O)N[C@@H](CCCN=C(N)N)C(=O)NCC(N)=O)NC(=O)[C@H](CC(N)=O)NC(=O)[C@H](CCC(N)=O)NC(=O)[C@H](Cc3ccccc3)NC2=O)cc1" ?
2.88

* * *

Below, each entry is listed with its recorded Kb.
- testedOn: Vasopressin V2 receptor (Rattus norvegicus, UniProt Q00788)
- Sequence (Q00788 whole entry): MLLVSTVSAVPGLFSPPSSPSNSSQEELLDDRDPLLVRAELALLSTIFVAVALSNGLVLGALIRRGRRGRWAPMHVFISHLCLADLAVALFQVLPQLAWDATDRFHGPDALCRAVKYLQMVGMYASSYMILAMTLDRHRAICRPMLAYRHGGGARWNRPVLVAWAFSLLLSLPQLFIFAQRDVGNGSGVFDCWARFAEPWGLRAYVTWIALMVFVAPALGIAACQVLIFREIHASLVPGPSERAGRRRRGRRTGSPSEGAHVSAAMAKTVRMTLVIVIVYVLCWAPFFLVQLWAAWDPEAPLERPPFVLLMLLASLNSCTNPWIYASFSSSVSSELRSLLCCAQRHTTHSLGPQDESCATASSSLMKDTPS
- experimentSummary: Antidiuretic activity at V2 receptor
- Format: tissue-based, Urine
- measurementContext: read-out: pA2 (converted)
Answer format: number, then unit.

Reference set (3 entries):
>  <entrySmiles>
CC[C@H](C)[C@@H]1NC(=O)[C@H](Cc2ccc(OC)cc2)NC(=O)CC2(CCCCC2)SSC[C@H](C(=O)N2CCC[C@H]2C(=O)N[C@@H](CCCN)C(=O)O)NC(=O)[C@H](CC(N)=O)NC(=O)[C@H]([C@@H](C)O)NC1=O

>  <testedOn>
Vasopressin V2 receptor (Rattus norvegicus, UniProt Q00788)

>  <Kb>
3.98 µM

$$$$
>  <entrySmiles>
CC(C)[C@@H]1NC(=O)[C@H](Cc2ccccc2)NC(=O)[C@@H](Cc2ccccc2)NC(=O)CC2(CCCCC2)SSC[C@H](C(=O)N2CCC[C@H]2C(=O)N[C@@H](CCCN=C(N)N)C(=O)NCC(N)=O)NC(=O)[C@H](CC(N)=O)NC1=O

>  <testedOn>
Vasopressin V2 receptor (Rattus norvegicus, UniProt Q00788)

>  <Kb>
0.0562 µM

$$$$
>  <entrySmiles>
CC[C@H](C)[C@@H]1NC(=O)[C@H](Cc2ccc(OC)cc2)NC(=O)CC2(CCCCC2)SSC[C@@H](C(=O)N2CCC[C@H]2C(=O)N[C@@H](CCCN)C(=O)O)NC(=O)[C@H](CC(N)=O)NC(=O)[C@H]([C@@H](C)O)NC1=O

>  <testedOn>
Vasopressin V2 receptor (Rattus norvegicus, UniProt Q00788)

>  <Kb>
3.16 µM

$$$$

Then there is this molecule:
Any idea what Kb was measured for "CC[C@H](C)[C@@H]1NC(=O)[C@H](Cc2ccc(OC)cc2)NC(=O)CC2(CCCCC2)SSC[C@H](C(=O)N2CCC[C@H]2C(=O)N[C@@H](CCCN)C(=O)N[C@@H](Cc2ccc(O)cc2)C(N)=O)NC(=O)[C@H](CC(N)=O)NC(=O)[C@H]([C@@H](C)O)NC1=O" ?
3.16 µM

* * *

- testedOn: Vasopressin V1a receptor (Rattus norvegicus, UniProt P30560)
- Sequence (P30560 whole entry): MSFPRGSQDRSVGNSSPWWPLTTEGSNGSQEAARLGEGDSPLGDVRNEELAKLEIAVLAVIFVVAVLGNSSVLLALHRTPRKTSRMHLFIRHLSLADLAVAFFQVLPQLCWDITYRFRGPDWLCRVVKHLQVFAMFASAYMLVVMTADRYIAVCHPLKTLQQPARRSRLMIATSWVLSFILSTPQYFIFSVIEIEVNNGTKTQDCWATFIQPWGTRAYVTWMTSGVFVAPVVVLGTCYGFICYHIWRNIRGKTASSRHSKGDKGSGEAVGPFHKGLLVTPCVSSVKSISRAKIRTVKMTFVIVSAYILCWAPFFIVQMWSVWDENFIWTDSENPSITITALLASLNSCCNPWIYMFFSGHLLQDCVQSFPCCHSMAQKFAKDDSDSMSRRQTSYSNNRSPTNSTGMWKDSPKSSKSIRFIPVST
- experimentSummary: Anti-vasopressor activity at V1a receptor
- measurementContext: read-out: pA2 (converted)
experimentalEndpoint: Kb (nM)
I only need the number, in nM, no unit after it.

>  <entrySmiles>
COc1ccc(C[C@@H]2NC(=O)CC3(CCCCC3)SSC[C@H](C(=O)N3CCC[C@H]3C(=O)N[C@@H](CCCN=C(N)N)C(=O)NCC(N)=O)NC(=O)[C@H](CC(N)=O)NC(=O)[C@H](CCC(N)=O)NC(=O)[C@H](Cc3ccccc3)NC2=O)cc1

>  <unitInfo>
nM

>  <reportedValue>
13.5

$$$$
>  <entrySmiles>
CC[C@H](C)[C@@H]1NC(=O)[C@H](Cc2ccc(OC)cc2)NC(=O)CC2(CCCCC2)SSC[C@H](C(=O)N2CCC[C@H]2C(=O)N[C@@H](CCCN)C(=O)NCC(N)=O)NC(=O)[C@H](CC(N)=O)NC(=O)[C@H](CCC(N)=O)NC1=O

>  <unitInfo>
nM

>  <reportedValue>
56.2

$$$$
>  <entrySmiles>
CC(C)[C@@H]1NC(=O)[C@H](Cc2ccccc2)NC(=O)[C@@H](Cc2ccccc2)NC(=O)CC2(CCCCC2)SSC[C@H](C(=O)N2CCC[C@H]2C(=O)N[C@@H](CCCN=C(N)N)C(=O)NCC(N)=O)NC(=O)[C@H](CC(N)=O)NC1=O

>  <unitInfo>
nM

>  <reportedValue>
27.5

$$$$

Then there is this molecule:
Any idea what Kb was measured for "CCOc1ccc(C[C@@H]2NC(=O)CC3(CCCCC3)SSC[C@H](C(=O)N3CCC[C@H]3C(=O)N[C@@H](CCCN=C(N)N)C(=O)NCC(N)=O)NC(=O)[C@H](CC(N)=O)NC(=O)[C@H](C(C)C)NC(=O)[C@H](Cc3ccccc3)NC2=O)cc1" ?
64.6
